Tested on: primary human uterine smooth muscle cells (HUtSMC)
protocol text: Collagen gel contraction assay
Assay type: cell-based
experimental setup: either state
Text: We performed experiments to determine the functional roles of the small molecules in regulating labor timing. Because labor onset is hallmarked by muscle contraction in the uterus, we asked whether these small molecules could alter smooth muscle contraction in the uterus. […] In either condition, we determined the pharmacological effects of our identified compounds on cellular contraction (each with at least 8 replicates). […]
readout kind: effect on myometrial cell contractility in either quiescent or contractile state

compound	target or system	observed measurement
N#CC(=C(/N)Sc1ccccc1N)/C(C#N)=C(\N)Sc1ccccc1N [U0126]	primary human uterine smooth muscle cells (HUtSMC)	absence of signal
COc1cccc(-c2cc(=O)c3ccccc3o2)c1N [PD-98059]	primary human uterine smooth muscle cells (HUtSMC)	absence of signal
